Endpoint: glass transition temperature (°C)

(I) *c1ccc(-c2sc(-c3ccc(-c4cc(CCCCCCCCCCCC)c(*)s4)cc3)cc2CCCCCCCCCCCC)cc1 (repeat unit)
(II) *c1ccc(Oc2ccc(C(C)(C)c3ccc(Oc4ccc(-c5ncc(*)o5)cc4C(F)(F)F)cc3)cc2)c(C(F)(F)F)c1 (repeat unit)
Of I versus II , which is the one with smaller reported glass transition temperature? // return label of chosen record I
(I: -19.20 °C, II: 185.00 °C)

(1) *c1ccc(Oc2ccc(S(=O)(=O)c3ccc(Oc4ccc(-c5nc6ccccc6n5-c5ccc(-n6c(*)nc7ccccc76)cc5)cc4)cc3)cc2)cc1 (repeat unit)
(2) *CC(*)C(=O)OCCN(CC)c1ccc(/N=N/c2ccc([N+](=O)[O-])cc2Cl)cc1 (repeat unit)
(3) *CC(*)(C)C(=O)OCCN(C)c1ccc(N(C)C)cc1 (repeat unit)
Could you please sort these 3 entries by glass transition temperature from high to low? Returns: the labels arranged in the requested order. 1, 2, 3

(P) *C(=O)c1ccc2c(c1)C(=O)N(c1ccc(-c3ccc(NC(=O)c4cccc(C(=O)Nc5ccc(-c6ccc(N7C(=O)c8ccc(*)cc8C7=O)cc6)cc5)c4)cc3)cc1)C2=O (repeat unit)
(Q) *OC(=O)c1cccc(C(=O)OC2CC3CC(*)CC(C2)O3)c1 (repeat unit)
Between P and Q , which one has the lower reported glass transition temperature value? Kindly state the label of the option you pick. Q
(Q: 113.00 °C, P: 238.00 °C)

###

Endpoint: glass transition temperature (°C)

Some compounds with recorded glass transition temperature:
*CCCCCCCCCC(c1ccc(O)cc1)C(*)c1ccc(O)cc1C (repeat unit) : -1.00
*c1cc(C(=O)OCCCCC)cc(N2C(=O)CC(C3Cc4ccccc4C4C(=O)N(*)C(=O)C43)C2=O)c1 (repeat unit) : 219.00
*Nc1ccc(C(C)(C)c2ccc(NC(=O)c3cc(C(*)=O)cc(N4C(=O)C=CC4=O)c3)cc2)cc1 (repeat unit) : 303.00

(I) */C=C(\C#N)C(=O)OCCCCCCOC(=O)/C(C#N)=C/c1ccc2c(c1)c1cc(*)ccc1n2CCCCCCCCCCCCCC (repeat unit)
(II) *CCN(CCOC(=O)c1ccc(C(=O)O*)c(OCCCCC)c1)c1ccc(/N=N/c2nc(C#N)c(C#N)[nH]2)cc1 (repeat unit)
Given I and II , report the one with the higher recorded glass transition temperature. Refer to your chosen entry by its label in the reply. II
(II: 131.00 °C, I: 53.00 °C)

###

Endpoint: glass transition temperature (°C)

(1) *Oc1ccc(NC(=O)c2ccc(C(=O)Nc3ccc(Oc4ccc(C5(c6ccc(*)cc6)C6CC7CC(C6)CC5C7)cc4)cc3)cc2)cc1 (repeat unit)
(2) *Cc1ccc(COC(=O)c2cccc(C(=O)O*)c2)cc1 (repeat unit)
Please indicate which has the smaller reported glass transition temperature: 1 , or 2 . Kindly state the label of the option you pick. 2
(2: 143.00 °C, 1: 264.00 °C)

(a) *Nc1cccc(NC(=O)c2ccc(NC(=O)c3ccc([Si](C)(C)c4ccc(C(=O)Nc5ccc(C(*)=O)cc5)cc4)cc3)cc2)c1 (repeat unit)
(b) *Oc1ccc(C(CC)(c2ccccc2)c2ccc(OC(*)=O)cc2)cc1 (repeat unit)
Higher glass transition temperature: a or b ? Write down the label of the entry you select. a

(I) *c1ccc(Oc2ccc(C(C)(C)c3ccc(Oc4ccc(-c5nc(-c6ccccn6)nnc5*)cc4)cc3)cc2)cc1 (repeat unit)
(II) *CC(*)c1ccc(C(=O)N2CCOCC2)cc1 (repeat unit)
Choose between I and II : whose measured glass transition temperature value is numerically larger? Write down the label attached to your selection. I

(I) *c1ccc2c(c1)C(=O)N(c1ccc(Oc3c(C)cc(Cc4cc(C)c(Oc5ccc(N6C(=O)c7ccc(C(*)(C(F)(F)F)C(F)(F)F)cc7C6=O)cc5)c(C)c4)cc3C)cc1)C2=O (repeat unit)
(II) *Oc1c(Cl)cc(C(C)(C)c2cc(Cl)c(OC(=O)c3ccc(OCCCCCCCCCCOc4ccc(C(*)=O)cc4)cc3)c(Cl)c2)cc1Cl (repeat unit)
Which entry shows the lesser value of glass transition temperature here, I or II ? // output: label of the selected item II
(II: 140.00 °C, I: 298.00 °C)

###

Endpoint: glass transition temperature (°C)

Some compounds with recorded glass transition temperature:
*Oc1ccc(N(c2ccccc2)c2ccc(-c3ccc(N(c4ccccc4)c4ccc(*)cc4)cc3)cc2)cc1 (repeat unit) : 218.00
*c1ccc2c(c1)C(=O)N(c1ccc(Oc3ccc(N4C(=O)c5ccc(-c6c(-c7ccccc7)c(-c7ccccc7)c(-c7ccc(Sc8ccc(-c9c(-c%10ccccc%10)c(-c%10ccccc%10)c(*)c(-c%10ccccc%10)c9-c9ccccc9)cc8)cc7)c(-c7ccccc7)c6-c6ccccc6)cc5C4=O)cc3)cc1)C2=O (repeat unit) : 322.00
*Oc1ccc(Oc2ccc(/C=N/CCCC/N=C/c3ccc(*)cc3)cc2)cc1 (repeat unit) : 105.00

(a) *CC(*)c1ccc(C(=O)CCCCC)cc1 (repeat unit)
(b) *Oc1ccc(OC(=O)c2ccc(C(*)=O)cc2Oc2ccc(-c3ccccc3)cc2)cc1 (repeat unit)
(c) *c1ccc(Cc2ccc(N3C(=O)c4ccc(Oc5ccc(C6(c7ccc(Oc8ccc9c(c8)C(=O)N(*)C9=O)cc7)CCC(c7ccccc7)CC6)cc5)cc4C3=O)cc2)cc1 (repeat unit)
Put the items in order so that reported glass transition temperature rises from first to last. Provide your answer as the labels ordered per the instruction. a, b, c
(a: 66.00 °C, b: 117.00 °C, c: 232.00 °C)

###

Endpoint: glass transition temperature (°C)

(P) *CCCCCCn1c2ccccc2c2cc(/C=C(\C#N)C(=O)OCCCCCCOC(=O)/C(C#N)=C/c3ccc4c(c3)c3ccccc3n4*)ccc21 (repeat unit)
(Q) *Oc1c(-c2ccccc2)cc(*)cc1-c1cccc(-c2ccccc2)c1-c1ccccc1 (repeat unit)
(R) *c1cccc(-c2nc3ccc(-c4ccc5nc(*)[nH]c5c4)cc3[nH]2)c1 (repeat unit)
Sort low-to-high on glass transition temperature, please. Answer by listing the labels in the order asked for. P, Q, R

###

Endpoint: glass transition temperature (°C)
Quick note: give the figure in °C, leave out the unit.

*CC(*)OCC(CC)CCCC (repeat unit) : -66.00
*CCOC(=O)NCCCCCCCCCNC(=O)O* (repeat unit) : 44.00
*O[Si](*)(C)CCCC(=O)OCC (repeat unit) : -82.00
*CC(=O)NC(C)C(=O)O* (repeat unit) : 54.60
*Nc1cccc2c(N[Se]*)cccc12 (repeat unit) : 53.00

With those in mind, consider the next compound.
Data point: *OP(=O)(Oc1ccccc1)Oc1ccc(C(C)(C)c2ccc(*)cc2)cc1 (repeat unit) ; glass transition temperature = 74.50

###

Endpoint: glass transition temperature (°C)

*CC[CH2][Sn]([CH3])([CH3])[CH2]CCOC(=O)C(CCCCCCOc1ccc(-c2ccc(OCc3ccc([N+](=O)[O-])cc3)cc2)cc1)C(=O)O* (repeat unit) : 40.50
*CCCCCC(*)CCCCCC (repeat unit) : -76.00
*CC(*)c1ccc(C(F)(F)C(F)(F)C(F)(F)C(F)(F)C(F)(F)C(F)(F)C(F)(F)F)cc1 (repeat unit) : 42.00
*Cc1ccc2oc(=O)c(C(=O)Nc3ccc(Oc4ccc(C(c5ccc(Oc6ccc(NC(=O)c7cc8cc(*)ccc8oc7=O)cc6)cc5)(C(F)(F)F)C(F)(F)F)cc4)cc3)cc2c1 (repeat unit) : 283.00
*c1ccc(Oc2ccc(C3(c4ccc(Oc5ccc(N6C(=O)c7ccc(Oc8ccc(C9(c%10ccc(Oc%11ccc%12c(c%11)C(=O)N(*)C%12=O)cc%10)CCC(C(C)(C)C)CC9)cc8)cc7C6=O)cc5)cc4)C4CC5CC(C4)CC3C5)cc2)cc1 (repeat unit) : 266.00
*CC(*)C(=O)Oc1ccc(C(=O)c2ccc(Cl)cc2)cc1 (repeat unit) : 78.00
*CCOCCOP(=O)(/N=N/c1ccc(Oc2ccc(/N=N/P(=O)(O*)OC)cc2)cc1)OC (repeat unit) : 32.00
*CCCCCCCCCCCCCCNC(=O)NCCCCCCCCCCNC(=O)N* (repeat unit) : 40.00
*c1ccc2cc(OC(=O)c3cccc(C(=O)Oc4ccc5cc(-c6nc7ccccc7nc6*)ccc5c4)c3)ccc2c1 (repeat unit) : 151.00
*c1ccc(C2(c3ccc(-c4nnc(*)o4)cc3)OC(=O)c3ccccc32)cc1 (repeat unit) : 380.00

(I) *OC(=O)C(C)NC(=O)CCCCCCC(=O)NC(C)C(=O)OC1COC2C(*)COC12 (repeat unit)
(II) *CCOCCOCCOC(=O)c1ccc(-c2ccc(C(=O)O*)cc2)cc1 (repeat unit)
Quick one: lower glass transition temperature, I or II ? Refer to your chosen entry by its label in the reply. II

(P) *Oc1ccc(NC(=O)c2cc(C(=O)Nc3ccc(Oc4ccc(C(c5ccc(*)cc5)(C(F)(F)F)C(F)(F)F)cc4)cc3)cc([N+](=O)[O-])c2)cc1 (repeat unit)
(Q) *O[Si](C)(C)O[Si](C)(C)O[Si](C)(C)c1ccc([Si](*)(C)C)cc1 (repeat unit)
Among P and Q , which shows a numerically higher glass transition temperature result? Respond using the label that marks the chosen record. P
(P: 232.00 °C, Q: -62.00 °C)
